Data provenance: patent US5306713A

Experiment: solubility in water
Assay type: physicochemical
Counter-ions that a name gives are not always drawn.

{"columns": ["Compound", "solubility in water (in words)"],
 "data": [
  ["Cc1c(C)c2c(c(C)c1OP(=O)(O)OC1=C(O)[C@@H]([C@@H](O)CO)OC1=O)CCC(C)(CCCC(C)CCCC(C)CCCC(C)C)O2 (mixture of isomers) [potassium salt]", "soluble in water"],
  ["Cc1c(C)c2c(c(C)c1OP(=O)(O)OC1=C(O)[C@@H]([C@@H](O)CO)OC1=O)CCC(C)(CCCC(C)CCCC(C)CCCC(C)C)O2 (mixture of isomers) [sodium salt of phosphoric acid diester]", "soluble in water"]
]}
